Property: Ki; scope: individual molecules
# test.system: N-terminally GST-tagged DLK (catalytic domain amino acid 1-520) (Homo sapiens, UniProt Q12852)
# Construct: N-terminally GST-tagged DLK (catalytic domain amino acid 1-520)
# Sequence (Q12852 1-520): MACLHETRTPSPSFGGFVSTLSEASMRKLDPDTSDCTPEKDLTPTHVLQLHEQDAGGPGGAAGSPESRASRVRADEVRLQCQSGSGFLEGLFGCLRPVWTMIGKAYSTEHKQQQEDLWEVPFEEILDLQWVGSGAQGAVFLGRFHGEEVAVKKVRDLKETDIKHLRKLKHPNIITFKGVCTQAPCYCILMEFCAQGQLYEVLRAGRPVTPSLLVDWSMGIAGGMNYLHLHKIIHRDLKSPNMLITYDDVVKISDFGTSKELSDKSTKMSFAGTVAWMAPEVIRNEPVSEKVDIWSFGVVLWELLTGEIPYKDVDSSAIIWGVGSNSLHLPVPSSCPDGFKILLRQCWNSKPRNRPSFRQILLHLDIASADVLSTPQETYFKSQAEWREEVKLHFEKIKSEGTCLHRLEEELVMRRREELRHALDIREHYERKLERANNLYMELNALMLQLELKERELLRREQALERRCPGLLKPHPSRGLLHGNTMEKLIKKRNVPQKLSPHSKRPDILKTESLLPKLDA
# test.summary: DLK TR-FRET inhibition assay
# particulars: 5 nM GST-DLK, 40 nM HIS-MKK4 K131M substrate, 30 μM ATP, 60 minutes at ambient temperature

molecule	Ki [nM]
CC(C)n1nc(-c2cnc(N)c(C(F)(F)F)c2)cc1[C@H]1[C@@H]2C[C@@H](N3CCN4CCCC4C3)C[C@@H]21 (single isomer, unassigned) [compound 263]	1
CC(C)n1nc(-c2cnc(N)c(C(F)(F)F)c2)cc1[C@H]1[C@@H]2C[C@H](N(C)C)C[C@@H]21	2.8
CC(C)n1nc(-c2cnc(N)c(C(F)(F)F)c2)cc1[C@H]1[C@@H]2C[C@H](N(C)CCS(C)(=O)=O)C[C@@H]21	3.36

* * *

Ki listing for selected compounds.
# test.system: N-terminally GST-tagged DLK (catalytic domain amino acid 1-520) (Homo sapiens, UniProt Q12852)
# Construct: N-terminally GST-tagged DLK (catalytic domain amino acid 1-520)
# Sequence (Q12852 1-520): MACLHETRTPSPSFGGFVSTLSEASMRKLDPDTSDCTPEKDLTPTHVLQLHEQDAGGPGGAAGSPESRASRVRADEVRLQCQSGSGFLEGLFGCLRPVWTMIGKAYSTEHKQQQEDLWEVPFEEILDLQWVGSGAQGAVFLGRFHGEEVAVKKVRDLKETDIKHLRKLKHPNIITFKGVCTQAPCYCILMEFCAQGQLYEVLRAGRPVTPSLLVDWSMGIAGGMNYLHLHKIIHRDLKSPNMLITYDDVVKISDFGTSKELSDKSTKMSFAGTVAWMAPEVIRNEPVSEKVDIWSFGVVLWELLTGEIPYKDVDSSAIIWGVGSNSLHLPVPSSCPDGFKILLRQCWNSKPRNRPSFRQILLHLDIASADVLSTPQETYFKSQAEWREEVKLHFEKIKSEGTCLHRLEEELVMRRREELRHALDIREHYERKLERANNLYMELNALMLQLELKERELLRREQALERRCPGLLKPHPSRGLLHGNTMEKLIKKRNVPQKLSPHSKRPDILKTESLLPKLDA
# test.summary: DLK TR-FRET inhibition assay
# particulars: 5 nM GST-DLK, 40 nM HIS-MKK4 K131M substrate, 30 μM ATP, 60 minutes at ambient temperature

compound	unit.label	operator	Ki
CC(C)n1nc(-c2cnc(N)c(C(F)(F)F)c2)cc1[C@H]1[C@@H]2C[C@@H](N3CC4(CCCO4)C3)C[C@@H]21	nM	=	2.7
CC(C)n1nc(-c2cnc(N)c(OC(F)F)c2)cc1[C@H]1[C@@H]2C[C@@H](N3CCOC[C@H]3C)C[C@@H]21	nM	=	1.43
COCCN1CC2(C[C@@H]3[C@H](C2)[C@H]3c2cc(-c3cnc(N)c(C(F)(F)F)c3)nn2C(C)C)C1	nM	=	8.52
COC1CCN([C@@H]2C[C@@H]3[C@H](C2)[C@H]3c2cc(-c3cnc(N)c(OC(F)F)c3)nn2C(C)C)CC1	nM	=	2
COC1CN([C@@H]2C[C@@H]3[C@H](C2)[C@H]3c2cc(-c3cnc(N)c(OC(F)F)c3)nn2CC2CC2)C1	nM	=	3.3
CC(C)n1nc(-c2cnc(N)c(C(F)(F)F)c2)cc1[C@H]1[C@@H]2C[C@@H](N3CCO[C@@H](C)C3)C[C@@H]21	nM	=	5.87
CC(C)n1nc(-c2cnc(N)c(OC(F)(F)F)c2)cc1[C@H]1[C@@H]2C[C@@H](N3CCOC[C@@H]3C)C[C@@H]21	nM	=	2.43
Nc1ncc(-c2cc([C@H]3[C@@H]4C[C@H](N5CCOCC5)C[C@@H]43)n(C3CCC3)n2)cc1OC(F)F	nM	=	1.58
CC(C)n1nc(-c2cnc3ccn([C@H](C)c4ccccn4)c3c2)cc1[C@H]1[C@@H]2C[C@@H](N3CCOCC3)C[C@@H]21	nM	=	70.6
CC(C)n1nc(-c2cnc(N)c(C(F)(F)F)c2)cc1[C@H]1[C@@H]2C[C@H](N3CCOC[C@@H]3C)C[C@@H]21	nM	=	4.89
Nc1ncc(-c2cc([C@H]3[C@@H]4C[C@H](N5CCCOCC5)C[C@@H]43)n(CC(F)F)n2)cc1OC(F)(F)F	nM	=	1.1
CO[C@H]1CCN([C@@H]2C[C@@H]3[C@H](C2)[C@H]3c2cc(-c3cnc(N)c(OC(F)F)c3)nn2CC2CC2)C1	nM	=	1.9
CC(C)n1nc(-c2cnc(N)c(OC(F)(F)F)c2)cc1[C@@H]1[C@@H]2C[C@H](N3CCOCC3)C[C@@H]21	nM	>	1600
CC(C)n1nc(-c2cnc(N)c(C(F)(F)F)c2)cc1[C@H]1[C@@H]2CC(N3CCN4CCOCC4C3)C[C@@H]21 (single isomer, unassigned) [compound 184]	nM	=	2.1
CC(C)n1nc(-c2cnc(N)c(OC(F)(F)F)c2)cc1[C@H]1[C@@H]2C[C@@H](N3CCN(C)CC3)C[C@@H]21	nM	=	2.26
CC(C)n1nc(-c2cnc(N)c(OC(F)F)c2)cc1[C@H]1[C@@H]2C[C@@H](N3C4COCC3C4)C[C@@H]21	nM	=	3.1
CC(C)n1nc(-c2cnc(N)c(C(F)(F)F)c2)cc1[C@H]1[C@@H]2C[C@@H](N3CCCOCC3)C[C@@H]21	nM	=	0.79
CC(C)n1nc(-c2cnc(N)c(C(F)(F)F)c2)cc1[C@H]1[C@@H]2CC(N3CC4COCC4C3)C[C@@H]21 (single isomer, unassigned) [compound 270]	nM	=	2.8
CC(C)n1nc(-c2cnc(N)c(C(F)(F)F)c2)cc1[C@H]1[C@@H]2CC3(C[C@@H]21)CN(C)CCO3 (single isomer, unassigned)	nM	=	1.3
CC(C)n1nc(-c2cnc(N)c(C(F)(F)F)c2)cc1[C@H]1[C@@H]2C[C@@H](N3CC4(COC4)C3)C[C@@H]21	nM	=	3.55
CC(C)n1nc(-c2cnc(N)c(OC(F)(F)F)c2)cc1[C@H]1[C@@H]2C[C@H](N3CCOCC3)C[C@@H]21	nM	=	2.97
CC(C)n1nc(-c2cnc(N)c(OC(F)F)c2)cc1[C@H]1[C@@H]2CC(=O)C[C@@H]21	nM	=	47.8
CC(C)n1nc(-c2cnc(N)c(C(F)(F)F)c2)cc1[C@H]1[C@@H]2C[C@H](N3CC(F)C3)C[C@@H]21	nM	=	1.53
CC(C)n1nc(-c2cnc(N)c(C(F)(F)F)c2)cc1[C@H]1[C@@H]2C[C@@H](N3CCN(CC(F)F)CC3)C[C@@H]21	nM	=	1.1
COC1CN([C@@H]2C[C@@H]3[C@H](C2)[C@H]3c2cc(-c3cnc(N)c(OC(F)(F)F)c3)nn2C(C)C)C1	nM	=	1.45

* * *

Listed here are compounds together with their documented Ki.
# test.system: N-terminally GST-tagged DLK (catalytic domain amino acid 1-520) (Homo sapiens, UniProt Q12852)
# Construct: N-terminally GST-tagged DLK (catalytic domain amino acid 1-520)
# Sequence (Q12852 1-520): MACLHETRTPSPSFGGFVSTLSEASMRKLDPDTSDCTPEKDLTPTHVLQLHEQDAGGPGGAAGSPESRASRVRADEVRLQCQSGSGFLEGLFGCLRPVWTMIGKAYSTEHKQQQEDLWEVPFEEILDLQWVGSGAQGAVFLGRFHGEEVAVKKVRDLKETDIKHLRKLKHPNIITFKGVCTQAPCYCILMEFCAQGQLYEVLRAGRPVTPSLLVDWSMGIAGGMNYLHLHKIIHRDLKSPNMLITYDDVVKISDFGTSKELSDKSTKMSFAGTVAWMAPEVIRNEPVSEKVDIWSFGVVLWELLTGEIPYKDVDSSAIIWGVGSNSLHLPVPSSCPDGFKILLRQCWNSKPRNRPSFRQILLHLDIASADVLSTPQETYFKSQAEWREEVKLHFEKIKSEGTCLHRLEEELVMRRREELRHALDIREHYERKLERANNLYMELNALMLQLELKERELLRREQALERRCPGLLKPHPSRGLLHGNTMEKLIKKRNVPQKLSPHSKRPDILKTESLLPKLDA
# test.summary: DLK TR-FRET inhibition assay
# particulars: 5 nM GST-DLK, 40 nM HIS-MKK4 K131M substrate, 30 μM ATP, 60 minutes at ambient temperature

compound	Ki
CC(C)n1nc(-c2cnc(N)c(OC(F)(F)F)c2)cc1[C@H]1[C@@H]2C[C@@]3(CCN3C3COC3)C[C@@H]21 [compound 140]	6.59 nM
CO[C@H]1CCN([C@@H]2C[C@@H]3[C@H](C2)[C@H]3c2cc(-c3cnc(N)c(C(F)(F)F)c3)nn2C(C)C)C1 [compound 90]	5.95 nM
CC(C)n1nc(-c2cnc(N)c(C(F)(F)F)c2)cc1[C@H]1[C@@H]2C[C@H](N(C)C3COC3)C[C@@H]21 [compound 49]	4.2 nM

Origin of values: patent US9365583B2
